# MIC in HAI values compiled below
Target: T1, CfaE, tip adhesin of CFA/I fimbriae on wild type ETEC strain H10407 (Escherichia coli (ETEC) strain H10407, UniProt P25734 23-360)
T1 sequence: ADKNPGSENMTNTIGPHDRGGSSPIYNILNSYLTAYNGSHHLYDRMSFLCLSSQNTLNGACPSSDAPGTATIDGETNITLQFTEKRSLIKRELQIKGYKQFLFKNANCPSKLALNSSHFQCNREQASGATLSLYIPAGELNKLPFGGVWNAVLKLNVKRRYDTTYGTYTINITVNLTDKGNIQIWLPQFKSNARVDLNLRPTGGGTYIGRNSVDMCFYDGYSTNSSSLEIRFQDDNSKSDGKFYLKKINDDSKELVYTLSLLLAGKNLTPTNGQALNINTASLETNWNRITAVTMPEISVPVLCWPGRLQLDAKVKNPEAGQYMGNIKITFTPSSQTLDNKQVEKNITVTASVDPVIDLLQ
Assay: cell-based or functional assay

Past entries and their recorded results:
{"Binder": "anti-CotD mouse mAb P6B8 (antibody, V domains shown) VH: QVTLKESGPGILQPSQTLSLTCSFSGFSLSTSGMGVGWIRQPSGKGLEWLSHIWWDDEKRYNPALKSRLTISKDTSSNQVFLKIASVDTADTATYYCARIGDRSGHAGFVYWGQGTLVTVSA VL: DIKMTQSPSSMYASLGERVTITCKASQDINSYLSWFQQKPGKSPKTLIYRANRLVDGVPSRFSGSGSGQDYSLTISSLEYEDMGTYYCLQYDEFPYTFGGGTKLEIK", "MIC in HAI": "> 250 µg/mL"}
{"Binder": "anti-CsbD mouse mAb P9A5 (antibody, V domains shown, Isotype n.d) VH: EVQLQQFGAEVVKPGASVKISCKASGYTFTDYNIDWVKQSHGESLEWIGDISPNSEGTTYNQKFKGQATLTIDKSSTTAYMELRSLTSEDSAVYYCARGSGIWNGLDYWGQGTSVTVSS VL: DIVMTQSHKFMSTSVGDRVSITCKASQDVSTAVAWYQQKPGQSPQLLIYSSSYRYVGVPDRFTGSGSGTDFTFTISSVQAEDLAVYYCHQHYSLPYTFGGGTKLEIK", "MIC in HAI": "> 250 µg/mL"}

[ask] Given anti-CsbD mouse mAb P7C2 (antibody, V domains shown) VH: EVKLEESGGGLVQPGGSMKLSCAASGFTFSDAWMDWVRQSPEKGLEWVGKIRSEINDHATYYAESVKGRFTISRDDSKSGVYLQMNNLRAEDTGIYYCARDGYYGAMDYWGQGTSVTVSS VL: DVQITQSPSYLAASPGETITINCRSNKSISRYLAWYQEKPGKTNKLLIYSGSTLQSGIPSRFSGSGSNTDFTLTISSLEPEDFAMYYCQQHNEYPYTFGSGTKLEIK , state its recorded MIC in HAI.
[reply] > 250 µg/mL
